Assay: PK profiles after IV and PO administration to BALB/c mice
Assay type: in vivo
Conditions: BALB/c, mouse, blood, po, 20 mg/kg, PO 20 mg/kg, 0.50 h, individual animals 201-203; read-out: concentration in blood
measured.metric: concentration at 0.5 h

Request: What measured concentration at 0.5 h goes with CC(=O)c1ccc(-c2cc(C(=O)c3ccc(C(F)(F)F)cc3)n3ccccc23)cc1 [Compound 42] ?
Response: 139 ng/mL

###

System: THP-1 cells
Test: Cell viability assay (CellTiter Clo) in THP-1 cells
Assay type: cell-based, Human
Details: THP-1 cells, 20 μM of each compound, co-treated with cGAMP (1 μg/ml)
Protocol: Human monocytic THP-1 wild-type (WT) and STING knockout (KO) cell lines were obtained from InvivoGen. […] Cells were analyzed using CellTiter Clo (CTG, Promega). […] was measured using a TECAN micro plate reader SPARK. […] THP-1 cells were co-treated with each of 86 indolizine derivatives and a very small amount of cGAMP (1 μg/ml), the immune response of the THP-1 cells was examined by ISRE reporter assay, and the cytotoxicity of co-treatment was also evaluated (Table 1). […]
Give Normalized cell viability for every item shown.
No unit in the answer, please; the number alone is enough.

Request: What measured Normalized cell viability goes with COc1ccc(-c2cc(C(C)=O)n3ccc(C(F)(F)F)cc23)cc1 [Compound 76] ?
Response: 1.14

Request: Try the compound CC(=O)c1ccc(-c2cc(C(C)=O)n3ccc(C(C)=O)cc23)cc1 [Compound 79]
Response: 1.19

Request: Try the compound COc1ccc(-c2cc(C(C)=O)n3ccccc23)cc1 [Compound 86]
Response: 1.22

Request: Try the compound COc1ccc(C(=O)c2cc(-c3ccc(OC)cc3)c3ccccn23)cc1 [Compound 54]
Response: 1.16

Request: Try the compound CCN(CC)c1ccc(C(=O)c2cc(-c3ccc(C(F)(F)F)cc3)c3cc(C(F)(F)F)ccn23)cc1 [Compound 16]
Response: 1.22

Origin of the recorded values: patent US20230390319A1
